- system.name: Fibroblast growth factor receptor 2 (Homo sapiens)
- protocol.conditions: at 10 µM
Decision: residual activity >= 50% yields True, all other cases yield False.

# example entries with known answers
# record.smiles, group
measured = [
    ("Cc1cc2ncc(-c3ccccc3)nc2cc1C", "True"),
    ("O=C(Nc1cccc(Nc2nccc(Nc3cccc(C(F)(F)F)c3)n2)c1)C1CC1", "False"),
    ("CN(C)c1ccc(/C=C2\\C(=O)Nc3ccccc32)cc1", "False"),
    ("c1ccc(-c2n[nH]c3c2oc2ccccc23)cc1", "True"),
    ("COc1cc2ncc(-c3ccccc3)nc2cc1OC", "True"),
]

For this molecule, is measured residual activity 50% or higher? COc1cc2ncnc(Nc3ccc(Oc4ccccc4)cc3)c2cc1OC
False
